I'd be grateful if you could share measured IC50 for these entries.
target: HPK1 (Homo sapiens); experiment: SLP76 phosphorylation assay (intracellular HPK1 inhibitory activity, p-SLP76 Ser376 sandwich ELISA); details: p-SLP76 IC50(nM), Jurkat, Clone E6-1 cells; 1 h compound pre-incubation, anti-CD3 beads stimulation 20 min; SLP76 phosphorylation at S376
Sequence (Q92918 whole entry): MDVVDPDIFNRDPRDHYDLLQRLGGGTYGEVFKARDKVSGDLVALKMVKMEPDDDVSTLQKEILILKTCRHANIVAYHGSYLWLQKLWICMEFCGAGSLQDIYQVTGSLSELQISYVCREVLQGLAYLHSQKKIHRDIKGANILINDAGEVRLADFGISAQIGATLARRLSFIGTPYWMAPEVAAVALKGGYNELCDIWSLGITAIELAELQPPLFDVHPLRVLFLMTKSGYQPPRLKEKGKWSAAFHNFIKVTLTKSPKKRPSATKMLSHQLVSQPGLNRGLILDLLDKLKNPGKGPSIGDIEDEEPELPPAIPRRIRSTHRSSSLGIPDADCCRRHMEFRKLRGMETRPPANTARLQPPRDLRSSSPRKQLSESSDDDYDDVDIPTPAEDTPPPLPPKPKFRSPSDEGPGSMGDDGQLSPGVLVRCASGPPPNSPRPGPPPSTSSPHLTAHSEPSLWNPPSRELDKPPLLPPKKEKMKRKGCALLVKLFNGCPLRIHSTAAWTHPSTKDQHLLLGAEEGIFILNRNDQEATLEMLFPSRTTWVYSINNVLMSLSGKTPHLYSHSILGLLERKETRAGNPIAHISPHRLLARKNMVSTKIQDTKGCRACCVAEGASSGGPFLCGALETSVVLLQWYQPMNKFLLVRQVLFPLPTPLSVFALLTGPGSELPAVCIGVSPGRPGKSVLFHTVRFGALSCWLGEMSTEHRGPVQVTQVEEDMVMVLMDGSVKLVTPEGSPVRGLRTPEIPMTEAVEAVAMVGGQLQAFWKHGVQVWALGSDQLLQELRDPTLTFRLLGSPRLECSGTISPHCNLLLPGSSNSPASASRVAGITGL
Number in nM, nothing else.

Look up IC50: Cc1c[nH]c2ncc(-c3cc4c(c(CN(C)C)c3)COCC4)cc12
545

Request the reported IC50 associated with Cc1c[nH]c2ncc(-c3cc4c(c([C@@H]5CCCN5)c3)CN(C(=O)c3cn(C(C)C)nc3C(F)(F)F)CC4)cc12
183

# IC50 lookup, item Cc1c[nH]c2ncc(-c3cc4c(c([C@@H]5CCCN5)c3)CN(C(=O)c3ccncc3)CC4)cc12
260

May I ask what IC50 has been recorded for Cc1c[nH]c2ncc(-c3cc4c(c([C@@H]5CCCN5)c3)CCN(C(=O)C3CCOCC3)C4)cc12 ?
88.4

Which IC50 value belongs to Cc1c[nH]c2ncc(-c3cc4c(c([C@@H]5CCCN5)c3)CCN(C(=O)C3(O)CC3)C4)cc12 ?
567

Entry Cc1c[nH]c2ncc(-c3cc4c(c([C@@H]5CCCN5)c3)CN(C(=O)[C@@H]3CCOC3)CC4)cc12 has what IC50?
174

Item Cc1cc(C(=O)N2CCc3cc(-c4cnc5[nH]cc(C)c5c4)cc([C@@H]4CCCN4)c3C2)n(C)n1 has what recorded IC50?
196

###

For each entry below, report its IC50 value.
target: HPK1 (Homo sapiens); assay: SLP76 phosphorylation assay (intracellular HPK1 inhibitory activity, p-SLP76 Ser376 sandwich ELISA); conditions: p-SLP76 IC50(nM), Jurkat, Clone E6-1 cells; 1 h compound pre-incubation, anti-CD3 beads stimulation 20 min; SLP76 phosphorylation at S376
A number alone suffices; assume nM.

Given the entry Cc1c[nH]c2ncc(-c3cc4c(c([C@@H]5CCCN5)c3)CN(C(=O)c3cn(C)nc3C(F)(F)F)CC4)cc12 [Compound Z337] , what IC50 was observed with HPK1 (Homo sapiens)?
359

Entry Cc1ncc(C(=O)N2CCc3cc(-c4cnc5[nH]cc(C)c5c4)cc([C@@H]4CCCN4)c3C2)c(C(F)(F)F)n1 [Compound Z349] , system HPK1 (Homo sapiens): what IC50 was measured?
240

What measured IC50 is associated with N#CC1(c2c[nH]c3ncc(-c4cc5c(c([C@@H]6CCCN6)c4)COCC5)cc23)CC1 [Compound Z137] on HPK1 (Homo sapiens)?
159

###

molecular target: HPK1 (Homo sapiens, UniProt Q92918); test: HPK1 kinase activity assay (ADP-Glo); settings: HPK1 Kinase activity IC50 (nM), 1 nM HPK1, 10 μM ATP, 0.1 μg/μL MBP
Sequence (Q92918 1-346 limits assumed): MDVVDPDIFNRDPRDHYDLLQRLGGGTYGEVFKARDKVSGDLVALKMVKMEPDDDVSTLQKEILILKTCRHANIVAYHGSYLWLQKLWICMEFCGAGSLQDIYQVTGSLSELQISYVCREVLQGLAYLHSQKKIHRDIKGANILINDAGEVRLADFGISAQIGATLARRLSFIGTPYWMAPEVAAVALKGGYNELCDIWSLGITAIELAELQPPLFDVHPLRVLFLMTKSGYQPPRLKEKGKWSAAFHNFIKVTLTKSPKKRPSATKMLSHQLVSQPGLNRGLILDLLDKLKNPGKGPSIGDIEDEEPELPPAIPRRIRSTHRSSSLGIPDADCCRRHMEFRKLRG
Threshold-based label: IC50 under 0.6 nM gives rule met, IC50 not under 0.6 nM gives rule not met.

Consider the compound Cc1c[nH]c2ncc(-c3cc4c(c([C@@H]5COCCN5)c3)CN(C(=O)[C@@](C)(O)C(F)(F)F)CC4)cc12 [Compound Z317] . Is its IC50 strictly less than 0.6 nM?
rule not met

Dear colleague, could you confirm whether IC50 of Cc1c[nH]c2ncc(-c3cc4c(c([C@@H]5CCCN5)c3)CCN(c3ccnn3C)C4)cc12 [Compound Z307] falls below 0.6 nM? Thanks.
rule met

Hello, I'm reviewing records and need to know if IC50 of Nc1ncc(-c2cc3c(c([C@@H]4CCCN4)c2)COCC3)cc1-c1nccs1 [Compound Z238] is below 0.6 nM. Could you check?
rule not met

hey, is IC50 for Cc1c[nH]c2ncc(-c3cc4c(c([C@@H]5CCCN5)c3)CN(C(=O)c3cccnc3)CC4)cc12 [Compound Z210] lower than 0.6 nM or not?
rule not met

State whether 0.6 nM exceeds IC50 recorded for Cc1ncncc1C(=O)N1CCc2cc(-c3cnc4[nH]cc(C)c4c3)cc([C@@H]3CCCN3)c2C1 [Compound Z283] .
rule met

# credit: patent US20240182465A1
